- procedureSummary: label from the status in PepcDB records
observable: protein production

Consider the following illustrative entries.
| recordSequence | observable | result |
| --- | --- | --- |
| MQEIEIFCDGSSLGNPGPGGYAAILRYKDKEKTISGGEEFTTNNRMELRALNEALKILKRPCRITLYSDSQYVCQAINVWLANWQKKNFSKVKNVDLWKEFLEVSKGHSIVAVWIKGHNGHAENERCDSLAKLEAQKRVKTTT | protein production | failed |
| MSAIQNGTDEVRVIDTGAPPTRFARGWHCLGLASEFSDGKPHQISAFGTELVVFAGEDGKLNVLNAFCPHMGGNLADGTVKGDTIACPFHDWRWRGDGKCADIPYARRVPPLARTKSWLTLERNGQLFVWNDPQNRKPPAEVTIPEISVFGDEGWTDWVWNKLEVRGSHCREIVDNVVDMAHFFYVHYGMPTYFKNVFEGHVATQVMRSKPRADAVDVKLGTNYDTESASDASYFGPSYMIDKLWTEGDDSGEPNIMLINCHYPISADSFMLQYGVMVKKPEGVPDAVANGIAAQVAAGVAIGFEQDVEIWKKKSSIDNPLLSEEDGPVYQLRRWYEQFYVDVEDINPEMTNRFEFEIDTDRALKNWQVEVDANLAAGRSAIPSPVS | protein production | not failed |
| MAALGLGTYGAHVFKPENPSYKQVWQTASLYHLVHTAALVSAPSTKYPNIFGGLLTAGIVAFSGTCYMVALREDRKFSTLAPFGGFAFIAAWATLLF | protein production | failed |
| MNPAPFLLLGGALAWLTLYLLGGRKVKAGEFILGAIIFPLSITLQNIVQQLPLLWVGIRPDITSLGTSEIIAISIWMGLIAGIFQELFKYIFVRGKSAGYAFSVGLGFAISEVIFITALVTLSAKGGTPSQPFATNLLSLAERYLVVLFHVGTAIMLTQGTRKVLIEVIGLHALIDSMAAYYQLMSAVYIKTNKIYMIPRILLLTEIVLAVITVIVLIASLPKISQVKEEKEEVIW | protein production | failed |
| MKIGVLGLQGAVREHVRAIEACGAEAVIVKKSEQLEGLDGLVLPGGESTTMRRLIDRYGLMEPLKQFAAAGKPMFGTCAGLILLAKRIVGYDEPHLGLMDITVERNSFGRQRESFEAELSIKGVGDGFVGVFIRAPHIVEAGDGVDVLATYNDRIVAARQGQFLGCSFHPELTDDHRLMQYFLNMVKEAKMASSLK | protein production | not failed |
| MKITTKGRYGLTITLELAKRIGDGPISLRSIAQDKNLSEHYLEQLIGPLRNAGIVKSIRGAHGGYVLNGDPEKITAGDIIRTLEGPIVLVESMEDEEAAQRELWTRMRNAVRDVLDQTTLSDLLKHSTDSELTDGYMFYI | protein production | not failed |

Query :: Recorded protein production of MSSGKDFFVHSHALCESENIGKDSRVWAFAHILPGARLGSECNVCDNVFIENDVIIGDRVTLKCGVQVWDGITIEDDVFIGPNATFTNDLFPRSKVYPQTFARTIIRKGASLGANCTILPGITIGINAMVGAGAVVTRSVPPNAIVVGNPAKIIGYVDAKPVNANSETRAEQKAPGVTATSVKNVTLHTMNEVADIRGSLSAGEFERSVPFKTERYFLVYDVPTAETRGEHAHRICHQFLVAVKGSVHVVADDGVNREEFILDKPNQGIHLPPMTWGIQYRYSQDAVLLVFASHYYDAGDYIRNYEEFKSLIANAELEHHHHHH , please.
Result :: not failed
